Molecular target: CDK9 (Homo sapiens)
Sequence (P50750 whole entry): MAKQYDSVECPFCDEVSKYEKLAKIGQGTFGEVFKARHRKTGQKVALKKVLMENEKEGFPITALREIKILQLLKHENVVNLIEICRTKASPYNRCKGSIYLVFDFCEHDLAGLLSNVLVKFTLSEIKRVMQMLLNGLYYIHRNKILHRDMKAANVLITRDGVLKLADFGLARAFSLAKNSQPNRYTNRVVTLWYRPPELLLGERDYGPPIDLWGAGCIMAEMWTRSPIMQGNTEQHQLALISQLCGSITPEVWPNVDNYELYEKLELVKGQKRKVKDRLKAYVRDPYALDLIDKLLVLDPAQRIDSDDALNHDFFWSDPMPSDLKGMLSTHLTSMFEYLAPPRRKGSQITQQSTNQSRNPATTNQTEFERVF
Sequence (O60563 whole entry partner): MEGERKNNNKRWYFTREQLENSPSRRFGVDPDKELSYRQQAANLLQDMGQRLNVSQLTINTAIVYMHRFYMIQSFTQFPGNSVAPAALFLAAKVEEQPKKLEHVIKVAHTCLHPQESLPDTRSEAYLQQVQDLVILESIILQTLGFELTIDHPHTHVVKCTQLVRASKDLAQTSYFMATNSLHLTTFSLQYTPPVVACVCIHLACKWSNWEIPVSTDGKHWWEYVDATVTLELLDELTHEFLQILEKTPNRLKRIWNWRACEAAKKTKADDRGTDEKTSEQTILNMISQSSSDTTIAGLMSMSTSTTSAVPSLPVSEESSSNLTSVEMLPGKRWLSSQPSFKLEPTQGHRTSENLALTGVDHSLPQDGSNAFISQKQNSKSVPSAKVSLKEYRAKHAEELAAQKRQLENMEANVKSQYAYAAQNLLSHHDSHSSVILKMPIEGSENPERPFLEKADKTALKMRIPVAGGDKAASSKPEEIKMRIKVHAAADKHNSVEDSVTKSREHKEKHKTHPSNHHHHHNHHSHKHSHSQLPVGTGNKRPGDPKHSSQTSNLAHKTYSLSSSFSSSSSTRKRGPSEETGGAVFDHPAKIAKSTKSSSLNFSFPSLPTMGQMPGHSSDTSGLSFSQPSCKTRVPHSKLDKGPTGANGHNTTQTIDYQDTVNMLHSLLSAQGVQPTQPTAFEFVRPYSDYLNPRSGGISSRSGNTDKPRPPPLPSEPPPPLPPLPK
Experiment: experiment of inhibiting kinase activity (Caliper mobility shift assay), CDK9
Format: biochemical
Settings: at 100 nM; read-out: inhibition rate CDK9
measurement-kind: inhibition at 0.1 µM

smiles_text=CC(C)S(=O)(=O)c1ccccc1Nc1nc(Nc2ccc3c(c2)OCCOCCN(S(C)(=O)=O)CCO3)nc2[nH]ccc12 target_under_test="CDK9 (Homo sapiens)" experimental_value="25 to 39%"
smiles_text=CN1CCOCCOc2cc(Nc3nc(Nc4ccccc4P(C)(C)=O)c4cc[nH]c4n3)ccc2OCC1 target_under_test="CDK9 (Homo sapiens)" experimental_value="25 to 39%"
smiles_text=Cc1nc2c(F)cc(-c3nc(Nc4ccc5c(c4)OCCOCCN(C)CCO5)nc4[nH]ccc34)cc2n1C(C)C target_under_test="CDK9 (Homo sapiens)" experimental_value="40 to 79%"
smiles_text=CC(C)S(=O)(=O)c1ccccc1Nc1nc(Nc2ccc3c(c2)OCCOCCNCCO3)nc2[nH]ccc12 target_under_test="CDK9 (Homo sapiens)" experimental_value="40 to 79%"
smiles_text=CN1CCOCCOc2cc(Nc3ncc(F)c(Nc4ccc5[nH]ccc5c4)n3)ccc2OCC1 target_under_test="CDK9 (Homo sapiens)" experimental_value="40 to 79%"
smiles_text=CN1CCOc2ccc(Nc3ncc(F)c(-c4ccc(C(=O)NCC#N)cc4)n3)cc2OCC1 target_under_test="CDK9 (Homo sapiens)" experimental_value="40 to 79%"
smiles_text=CN1CCOCCOc2cc(Nc3ncc(F)c(-c4ccc(C(=O)NCC#N)cc4)n3)ccc2OCC1 target_under_test="CDK9 (Homo sapiens)" experimental_value="> 80%"
